- Target System: HCV-NS5b (Hepatitis C virus genotype 1b)
- Construct: (His)6 (C); made in house; host or cells: XL-1 cells (E. coli), IPTG-inducible plasmid
- Experiment Notes: HCV-NS5b enzyme assay using homopolymer substrate
- Type: biochemical
- Cond: homopolymer substrate, [3H]-UTP incorporation, 30° C., 90 minutes; read-out: IC50
pIC50: −log10 of the molar value.
Measurement Kind: pIC50

Reference set (2 entries):
>>> print(df.to_string())
                                   molecule  reported
0  O=C(O)c1ccc2c(C3CCCCC3)c3n(c2c1)CCCn1cc(CN2CCCCC2)c2cc(F)cc-3c21 [Compound 467]      7.02
1  O=C(O)c1ccc2c(C3CCCCC3)c3n(c2c1)CCCn1cc(CNCc2cccnc2)c2cccc-3c21 [Compound 386]      6.71

1. O=C(O)c1ccc2c(C3CCCCC3)c3n(c2c1)CCCn1c(C(=O)O)cc2cccc-3c21 [Compound 407]
2. CCN(C)Cc1cn2c3c(ccc(OC)c13)-c1c(C3CCCCC3)c3ccc(C(=O)O)cc3n1CCC2 [Compound 462]
In: Quick one: lower pIC50, 1 or 2 ? Answer with the label corresponding to your selection.
Out: 2
(2: 6.38, 1: 6.60)
